molecular target: Bifunctional epoxide hydrolase 2 (Homo sapiens) (UniProt P34913); experiment: soluble epoxide hydrolase activators, primary screen, biochemical, human sEH (AID 717); conditions: purified human sEH enzymatic activity, activator screen; at 2 µM; stronger effect = higher value
Sequence (P34913 whole entry, looked up): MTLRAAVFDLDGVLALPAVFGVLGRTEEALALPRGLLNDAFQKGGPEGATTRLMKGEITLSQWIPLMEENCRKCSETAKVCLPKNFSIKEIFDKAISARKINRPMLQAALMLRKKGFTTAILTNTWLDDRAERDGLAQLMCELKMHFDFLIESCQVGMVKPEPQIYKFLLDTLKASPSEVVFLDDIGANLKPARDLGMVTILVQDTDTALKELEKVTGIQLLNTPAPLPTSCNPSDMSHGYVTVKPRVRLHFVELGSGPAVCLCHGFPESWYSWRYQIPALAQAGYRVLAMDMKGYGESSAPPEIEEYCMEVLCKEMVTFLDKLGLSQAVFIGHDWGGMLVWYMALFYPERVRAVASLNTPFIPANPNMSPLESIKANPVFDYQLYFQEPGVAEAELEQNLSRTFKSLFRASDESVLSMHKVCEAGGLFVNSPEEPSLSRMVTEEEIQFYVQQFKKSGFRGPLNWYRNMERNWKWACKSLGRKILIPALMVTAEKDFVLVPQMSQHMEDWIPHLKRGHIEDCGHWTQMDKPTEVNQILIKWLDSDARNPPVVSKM
Out of some 91,000 compounds screened, about 40 (0.04%) were called active. A selection follows.
measuredQuantity: activation (%)
Entry rule: numbers only, all in %.

[ask] # return recorded activation for entry `O=C(CNC(=O)c1ccccc1)NCC(=O)OCc1ccc(Cl)cc1`
[reply] 5.3

[ask] Provide activation value for the following molecule: CC1CCN(C(NC(=O)c2ccco2)C(=O)c2ccccc2)CC1 (stereo not given)
[reply] -0.4

[ask] Return activation for the following molecule: `O=C(Nc1ccc2c(c1)OCCO2)c1ccc(Cl)c(S(=O)(=O)N2CCCCC2)c1`
[reply] -77.7

[ask] Input `COc1ccc(N(CC(=O)N/N=C/c2cccc3c2OCCO3)S(=O)(=O)c2ccc(NC(C)=O)cc2)cc1` , output reported activation.
[reply] 5.2

[ask] Tell me its activation given `O=S(=O)(c1ccc(F)cc1)n1ccc(-c2cnc(-c3ccccc3)s2)n1` as the entry.
[reply] 8.1

[ask] Return the recorded activation value; entry: `O=c1[nH]n(-c2cccc(Cl)c2)c2ncccc12`
[reply] 0.8

[ask] Give the reported activation for this molecule. `Cc1cccc(-n2cnc(C(=O)Nc3cccnc3)c2)n1`
[reply] 7.2

[ask] Give the reported activation for this molecule. `O=C(CCc1ccc(S(=O)(=O)N2CCOCC2)cc1)Nc1ccc2ccccc2c1`
[reply] -20.5

[ask] For the molecule `Cc1ccccc1C(=O)N1CCC(C(=O)Nc2ccc(S(=O)(=O)N(C)C(C)C)cc2)CC1` , give its reported activation.
[reply] -83.3

[ask] Specify measured activation for CCC(C)n1c(-c2cc(OC)c(OC)c(OC)c2)nc2nc3ccccc3nc21 (stereo not given) .
[reply] 0.8

[ask] Respond only with activation recorded for `N/C(=N\OC(=O)c1cc(-c2ccccc2)nc2ccccc12)c1ccncc1`
[reply] 3

[ask] Report measured activation; entry is `N#Cc1c(C(F)(F)F)cc(-c2ccccc2)nc1SCC(=O)N1CCOCC1`
[reply] 0.7

[ask] Answer with reported activation of `Cc1nn(C)cc1/C=C1\CCC/C(=C\c2cn(C)nc2C)C1=O`
[reply] 11.7

[ask] Give the value of activation reported for the following: `Cc1ccccc1OCc1nnc(SCC(=O)N2c3ccccc3Sc3ccc(Cl)cc32)o1`
[reply] 1

[ask] Give recorded activation. `Cc1ccc(C(=O)NNC(=O)OC(C)(C)C)c(Cl)c1`
[reply] 2

[ask] State, in one line, measured activation of `CC(=O)Nc1ccccc1C(=O)C(=O)Nc1ccc(F)cc1`
[reply] 21.4

[ask] Annotate the molecule `N#C/C(=C(/O)Cc1cccc2ccccc12)c1nc2ccccc2s1` with its measured activation.
[reply] 13.6

[ask] Check the records and state activation for `Cc1c(C(=O)OC(C)C)sc(NC(=O)c2cccnc2)c1C#N`
[reply] -4.7

[ask] Name the recorded activation of the molecule listed here: `COc1ccc(C)cc1NC(=O)CCC(=O)Nc1nnc(C(F)(F)F)s1`
[reply] -15.1

[ask] Give the measured activation for `Cc1cc(C)cc(OCC(=O)NNC(=O)c2cc3ccccc3oc2=O)c1`
[reply] 2

[ask] Indicate the recorded activation value for this molecule: `CC(C)CC(=O)N1CCC(O)(CS(=O)(=O)Cc2ccccc2)CC1`
[reply] 0.4

[ask] Supply reported activation belonging to this molecule: `c1ccc(CSc2ncnc3c2sc2nc(N4CCOCC4)c4c(c23)CCCC4)cc1`
[reply] -8.4

[ask] Given the molecule `Clc1ccc(-n2nnnc2CN2CCCCC2)cc1Cl` , write its reported activation.
[reply] -4

[ask] Please give the documented activation of Cc1c(Br)c([N+](=O)[O-])nn1C(C)C(=O)Nc1nccs1 (stereo not given)
[reply] 6.6

[ask] Fill in activation for record `O=C(/C=C/c1cccs1)c1cc(Cl)ccc1OC(=O)N1CCOCC1`
[reply] 7.4

[ask] State its activation: `O=C(c1cccc(F)c1)N1CCN(c2ccc([N+](=O)[O-])c(N3CCCCC3)c2)CC1`
[reply] -8.2

[ask] Supply reported activation belonging to this molecule: `CCCCNC(=O)CCn1c(=S)[nH]c2cc3c(cc2c1=O)OCO3`
[reply] -13.6

[ask] For the molecule `Cc1c(NC(=O)CCCOc2ccccc2)cccc1[N+](=O)[O-]` , give its reported activation.
[reply] -9.6

[ask] Read the entry `O=C(CSCc1c(Cl)cccc1Cl)NN1C(=O)c2ccccc2C1=O` and write its reported activation.
[reply] -21.2

[ask] Answer with the recorded activation for the molecule listed here: `CC(C)(C)NC(=O)NC(=O)COC(=O)CCC1CCCCC1`
[reply] -0.5

[ask] Tell me measured activation for `NS(=O)(=O)c1ccc(Nc2nc(-c3ccccc3)cs2)cc1` please.
[reply] -4.9

[ask] Kindly indicate its recorded activation. Item: COc1ccc2c(c1)SC(C)CC2=O (stereo not given)
[reply] 13.9

[ask] Item `O=C(NCc1cccnc1)c1cccnc1Sc1ccc(Cl)cc1` : provide activation
[reply] 17.3

[ask] Read off the recorded activation for `c1ccc(-c2ccnc3nc(-n4cccc4)nn23)cc1`
[reply] 3.1

[ask] In one line, give reported activation of the entry `CN(C)/C=C/C(=O)c1ccccc1F` .
[reply] -11.3

[ask] Report activation for `CC(C)(C)c1cc2cccnc2n1Cc1ccccc1`
[reply] -9.8

[ask] Quickly give me recorded activation for `CN(CC#CCC(c1ccccc1)c1ccccc1)C(C)(C)C`
[reply] -4.2

[ask] Name the recorded activation of the molecule listed here: `CCN(CC)c1nc(-c2ccccc2)cc(C(F)(F)F)c1C#N`
[reply] 30.7

[ask] Provide only the value of recorded activation for `CCn1c2ccccc2c2cc(NC(=O)C/C(C)=N/NC(=O)c3ccccc3N)ccc21`
[reply] -2.8

[ask] For the molecule `C=CCNC(=O)c1sc(SC)cc1-c1ccc(Cl)cc1` , give its measured activation value.
[reply] 14.9

[ask] Give the reported activation for this molecule. `COCCCNCC(=O)Nc1sc(C)c(C)c1C(=O)OC`
[reply] -1

[ask] Give activation for the following molecule: `O=C(Nc1nnc(CCOCCOCCc2nnc(NC(=O)c3ccco3)s2)s1)c1ccco1`
[reply] -12

[ask] Input `COc1ccc(NS(=O)(=O)c2ccc(NC(=S)NC(=O)CC(C)C)cc2)cc1` , output reported activation.
[reply] 1.9

[ask] Respond only with activation recorded for `Cc1nn(-c2ccccc2)c(Cl)c1C(=O)Nc1ccccc1`
[reply] 2

[ask] Supply recorded activation for `COc1ccccc1-c1n[nH]c2c1[C@H](C)CC[C@H]2C(C)C` here.
[reply] 15.1

----------
biological target: Bifunctional epoxide hydrolase 2 (Homo sapiens) (UniProt P34913); assay: soluble epoxide hydrolase activators, primary screen, biochemical, human sEH (AID 717); settings: purified human sEH enzymatic activity, activator screen; at 2 µM; stronger effect = higher value
Out of some 91,000 compounds screened, about 40 (0.04%) were called active. Only a sample is shown.
measuredQuantity: activation (%)
Return type: number; implicit unit %.

[ask] Report activation under test system Bifunctional epoxide hydrolase 2 (Homo sapiens) (UniProt P34913) for `O=C(NCCCCCCCCCNC(=O)C(F)(F)F)C(F)(F)F` .
[reply] -6.7

[ask] Provide activation, tested on Bifunctional epoxide hydrolase 2 (Homo sapiens) (UniProt P34913), for Cc1nn(-c2ccccn2)c2c1C(c1ccncc1)C1=C(CC(C)(C)CC1=O)N2 (stereo not given) .
[reply] 3.8

[ask] Quote activation with test system Bifunctional epoxide hydrolase 2 (Homo sapiens) (UniProt P34913) for `CC(=O)c1cn(CCCCCCCCCCn2cc(C(C)=O)c(=O)[nH]c2=O)c(=O)[nH]c1=O`
[reply] 3.2

[ask] Give activation for `Cc1ccc(S(=O)(=O)N(CC(=O)N/N=C/c2ccc(F)cc2)c2cccc3cccnc23)cc1` tested on Bifunctional epoxide hydrolase 2 (Homo sapiens) (UniProt P34913).
[reply] 6.1

[ask] Enter recorded activation with Bifunctional epoxide hydrolase 2 (Homo sapiens) (UniProt P34913) for `CS(=O)(=O)N(CC(=O)Nc1ccc(F)cc1F)c1cccc([N+](=O)[O-])c1` here.
[reply] -2.8
